target: Recombinant human MASP2 enzyme (fragment corresponding to amino acids 297-686, C-terminal His Tag) (human, UniProt O00187 297-686)
Sequence (O00187 other isoform, or with tags, fused parts or gaps limits assumed): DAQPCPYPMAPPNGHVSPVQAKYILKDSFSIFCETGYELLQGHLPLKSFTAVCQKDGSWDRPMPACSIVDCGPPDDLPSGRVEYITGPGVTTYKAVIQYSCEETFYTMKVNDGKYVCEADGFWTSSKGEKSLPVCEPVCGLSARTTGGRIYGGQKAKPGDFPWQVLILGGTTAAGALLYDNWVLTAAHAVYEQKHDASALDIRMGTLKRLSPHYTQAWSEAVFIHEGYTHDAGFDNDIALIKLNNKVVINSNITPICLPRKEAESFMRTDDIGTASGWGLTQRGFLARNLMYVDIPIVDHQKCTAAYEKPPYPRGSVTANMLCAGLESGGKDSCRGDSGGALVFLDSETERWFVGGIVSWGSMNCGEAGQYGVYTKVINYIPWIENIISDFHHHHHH
experiment: cell-based or functional assay
Bridge positions count the residues as written; N and C are the ends. Square brackets hold non-standard residues; d marks the D form. Primed or numbered codes have the meaning given here. Ends that are not written are not given here. * marks the point of attachment. Tranexamic″ = tranexamic acid, NC[C@H]1CC[C@@H](C(=O)*)CC1; tBuAla = CC(C)(C)C[C@H](N)C(=O)O; Pen = CC(C)(S)[C@H](N)C(=O)O
readout.type: human MASP2 IC50 (nM)
Respond with the bare value in nM.

>>> readout_number("[2‑(Cyclohexylamino)acetyl]ICSRS[tBuAla]PPI[Pen]IPD-NH2 (disulfide 3-11) [(2-(Cyclohexylamino)acetyl)-IC+SRS-((tBu)A)-PPI-(Pen)+IPD-NH2]")
200

Lookup: Give the measured human MASP2 IC50 for {Tranexamic″}-ICSRS[tBuAla]PPI[Pen]IP-NH2 (disulfide 2-10; SMILES CC[C@H](C)[C@@H]1NC(=O)[C@@H]2CCCN2C(=O)[C@@H]2CCCN2C(=O)[C@H](CC(C)(C)C)NC(=O)[C@H](CO)NC(=O)[C@H](CCCNC(=N)N)NC(=O)[C@H](CO)NC(=O)[C@@H](NC(=O)[C@@H](NC(=O)[C@H]2CC[C@@H](CN)CC2)[C@@H](C)CC)CSSC(C)(C)[C@@H](C(=O)N[C@H](C(=O)N2CCC[C@H]2C(N)=O)[C@@H](C)CC)NC1=O) [(Tranexamic)-IC+SRS-((tBu)A)-PPI-(Pen)+IP-NH2]
Found: 17

Where do these numbers come from? They come from patent US20210246166A1.
